Tested on: biotinyl-Ile-oxazolone
Experiment: self-aminoacylation, catalytic enhancement (BIO) (fold over background); higher = more active; k-Seq, kA / k0A0; sequences stand for … in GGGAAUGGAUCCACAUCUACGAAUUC…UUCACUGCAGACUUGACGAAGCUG
Variants at the floor of the assay were thinned out.
Please mark 1 if the recorded self-aminoacylation is equal to or greater than 1, and 0 if it falls below.

See these solved cases before continuing.
[
  {
    "CHAIN SEQUENCE": "AUUACGCUGGUCGUCGAGUGA [Fam2.1 aminoacylation ribozyme variant]",
    "CAT": 1
  },
  {
    "CHAIN SEQUENCE": "CCACACUUCAAGCACUCGGGC [Fam1B.1 aminoacylation ribozyme variant]",
    "CAT": 1
  },
  {
    "CHAIN SEQUENCE": "CAACACUUUAAGCAAUCGGUC [Fam1B.1 aminoacylation ribozyme variant]",
    "CAT": 0
  },
  {
    "CHAIN SEQUENCE": "UCACACUUCAAGCAAUCGUUC [Fam1B.1 aminoacylation ribozyme variant]",
    "CAT": 0
  },
  {
    "CHAIN SEQUENCE": "ACACACUUCAAACAAUCGGUC [Fam1B.1 aminoacylation ribozyme variant]",
    "CAT": 1
  },
  {
    "CHAIN SEQUENCE": "CUAAUUCAAACAAUCGGUGUG [Fam1A.1 aminoacylation ribozyme variant]",
    "CAT": 0
  }
]

Dear colleague, could you confirm whether AUUACCCUGGUCCCCGAGUGA [Fam2.1 aminoacylation ribozyme variant] has self-aminoacylation at or above 1?
1

Source of measurements: the supplement of paper PMC9233669
